# tested-target: σ2R (Rattus norvegicus)
# Sequence (Q5U3Y7 1-176): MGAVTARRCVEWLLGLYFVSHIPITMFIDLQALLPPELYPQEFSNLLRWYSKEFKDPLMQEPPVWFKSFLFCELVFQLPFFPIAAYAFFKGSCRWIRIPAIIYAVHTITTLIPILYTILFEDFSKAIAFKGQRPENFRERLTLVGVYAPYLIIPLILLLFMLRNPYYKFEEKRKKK
Entries annotated with measured pKi
// pKi is dimensionless: -log10 of concentration (M)

COC(CN1CC[C@]2(C)c3cc(O)ccc3C[C@H]1[C@H]2C)c1ccccc1 (single isomer, unassigned; (+)) [(+)-2R/S-LP2 (7)]	5.62
CO[C@@H](CN1CC[C@@]2(C)c3cc(O)ccc3C[C@@H]1[C@@H]2C)c1ccccc1 [(−)-2R-LP2 (2)]	7.18
COC(CN1CC[C@@]2(C)c3cc(O)ccc3C[C@@H]1[C@@H]2C)c1ccccc1 (single isomer, unassigned; (-)) [(−)-2R/S-LP2 (1)]	7.18
CO[C@H](CN1CC[C@@]2(C)c3cc(O)ccc3C[C@@H]1[C@@H]2C)c1ccccc1 [(−)-2S-LP2 (3)]	5.99
CO[C@H](CN1CC[C@]2(C)c3cc(O)ccc3C[C@H]1[C@H]2C)c1ccccc1 [(+)-2S-LP2 (9)]	5.65

Read the next record carefully.
Bench note, σ2R (Rattus norvegicus): entry CO[C@@H](CN1CC[C@]2(C)c3cc(O)ccc3C[C@H]1[C@H]2C)c1ccccc1 [(+)-2R-LP2 (8)] , its pKi = 5.72

* * *

# tested-target: σ1R (Cavia porcellus)
# Construct: The thawed membrane preparation of guinea pig brain cortex (250 μg/sample) was incubated; from tissue; host or cells: brain cortex membranes of male Dunkin-Hartley guinea pigs
# Sequence (Q60492 whole entry): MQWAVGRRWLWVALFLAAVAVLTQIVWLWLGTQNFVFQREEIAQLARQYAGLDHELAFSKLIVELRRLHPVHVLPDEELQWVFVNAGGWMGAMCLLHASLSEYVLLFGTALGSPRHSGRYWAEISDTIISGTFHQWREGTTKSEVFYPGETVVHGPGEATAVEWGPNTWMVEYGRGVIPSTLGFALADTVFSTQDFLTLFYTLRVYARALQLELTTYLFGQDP
# assay-method-text: σ1R radioligand competition binding assay ([3H]-(+)-pentazocine, guinea pig brain cortex membranes)
pKi: −log10 of the molar value.
The threshold is inclusive: pKi of exactly 7 counts as Satisfied; values below receive Not satisfied.

Consider the following illustrative entries.
CO[C@@H](CN1CC[C@]2(C)c3cc(O)ccc3C[C@H]1[C@H]2C)c1ccccc1 [(+)-2R-LP2 (8)]	Satisfied
COC(CN1CC[C@@]2(C)c3cc(O)ccc3C[C@@H]1[C@@H]2C)c1ccccc1 (single isomer, unassigned; (-)) [(−)-2R/S-LP2 (1)]	Not satisfied
CO[C@@H](CN1CC[C@@]2(C)c3cc(O)ccc3C[C@@H]1[C@@H]2C)c1ccccc1 [(−)-2R-LP2 (2)]	Not satisfied

Identify whether the reported pKi of the following molecule is 7 or greater: COC(CN1CC[C@]2(C)c3cc(O)ccc3C[C@H]1[C@H]2C)c1ccccc1 (single isomer, unassigned; (+)) [(+)-2R/S-LP2 (7)]
Satisfied

Identify whether the reported pKi of the following molecule is 7 or greater: CO[C@H](CN1CC[C@]2(C)c3cc(O)ccc3C[C@H]1[C@H]2C)c1ccccc1 [(+)-2S-LP2 (9)]
Satisfied

* * *

Entries annotated with measured Ki
# tested-target: DOR (Rattus norvegicus, UniProt P33533)
# Sequence (P33533 whole entry): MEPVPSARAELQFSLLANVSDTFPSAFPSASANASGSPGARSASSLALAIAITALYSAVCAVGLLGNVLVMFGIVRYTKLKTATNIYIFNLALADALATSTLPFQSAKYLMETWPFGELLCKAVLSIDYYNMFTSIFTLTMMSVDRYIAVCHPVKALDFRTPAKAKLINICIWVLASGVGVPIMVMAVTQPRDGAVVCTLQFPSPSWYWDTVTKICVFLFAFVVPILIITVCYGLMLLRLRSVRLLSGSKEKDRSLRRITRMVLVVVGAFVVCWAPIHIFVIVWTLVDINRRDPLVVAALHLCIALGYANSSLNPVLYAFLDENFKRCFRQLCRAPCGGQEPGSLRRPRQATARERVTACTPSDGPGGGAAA
# assay-method-text: DOR radioligand binding assay ([3H]-Deltorphin II, rat brain membranes)
Please give a number only; it is taken to be in nM.

Ki reading for CO[C@@H](CN1CC[C@]2(C)c3cc(O)ccc3C[C@H]1[C@H]2C)c1ccccc1 [(+)-2R-LP2 (8)] : 1010

Ki reading for COC(CN1CC[C@]2(C)c3cc(O)ccc3C[C@H]1[C@H]2C)c1ccccc1 (single isomer, unassigned; (+)) [(+)-2R/S-LP2 (7)] : 1040

Ki reading for CO[C@H](CN1CC[C@]2(C)c3cc(O)ccc3C[C@H]1[C@H]2C)c1ccccc1 [(+)-2S-LP2 (9)] : 1040

* * *

# tested-target: MOR (Rattus norvegicus, UniProt P33535)
# Sequence (P33535 whole entry): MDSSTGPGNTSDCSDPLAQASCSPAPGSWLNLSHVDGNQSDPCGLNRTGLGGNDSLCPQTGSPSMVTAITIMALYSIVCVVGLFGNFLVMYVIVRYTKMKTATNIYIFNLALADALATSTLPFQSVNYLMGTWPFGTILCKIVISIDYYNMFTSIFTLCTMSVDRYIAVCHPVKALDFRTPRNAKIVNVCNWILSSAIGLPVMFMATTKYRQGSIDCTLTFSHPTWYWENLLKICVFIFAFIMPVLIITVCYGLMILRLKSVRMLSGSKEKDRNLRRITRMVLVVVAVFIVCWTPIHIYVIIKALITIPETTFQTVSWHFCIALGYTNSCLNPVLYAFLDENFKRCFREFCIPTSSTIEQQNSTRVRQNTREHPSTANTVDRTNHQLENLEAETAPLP
assay-readout: pKi
// pKi is dimensionless: -log10 of concentration (M)

CO[C@@H](CN1CC[C@]2(C)c3cc(O)ccc3C[C@H]1[C@H]2C)c1ccccc1 [(+)-2R-LP2 (8)]	6.10
CO[C@H](CN1CC[C@]2(C)c3cc(O)ccc3C[C@H]1[C@H]2C)c1ccccc1 [(+)-2S-LP2 (9)]	5.93

Read the next record carefully.
Bench note, MOR (Rattus norvegicus, UniProt P33535): entry COC(CN1CC[C@]2(C)c3cc(O)ccc3C[C@H]1[C@H]2C)c1ccccc1 (single isomer, unassigned; (+)) [(+)-2R/S-LP2 (7)] , its pKi = 5.94
